- System: MDA-MB-231 complex spheroid viability
- procedure.details: Anticancer human tumor MDA-MB-231/ATCC cell line growth inhibition;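 further: drug exposure lasted 7 days starting on day 3 of spheroid growth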
- stated.conditions: second compound 0.1 µM; first compound 0.03 µM; hits give low values
Provide the recorded viability, T/C for the entries that follow.
Answers are plain numbers, in %.

A selection of reference data follows.
compound	viability, T/C (%)
Nc1ccccc1NC(=O)c1ccc(CNC(=O)OCc2cccnc2)cc1 + NC1CCC(NC2CC2c2ccccc2)CC1	61
Nc1ncn(C2CC(O)C(CO)S2)c(=O)n1 (configuration not stated) + NC1CCC(NC2CC2c2ccccc2)CC1	44.3
O=C(C=Cc1cccc(S(=O)(=O)Nc2ccccc2)c1)NO + NC1CCC(NC2CC2c2ccccc2)CC1	75.7
CCc1c2c(nc3ccc(O)cc13)-c1cc3c(c(=O)n1C2)COC(=O)[C@]3(O)CC + NC1CCC(NC2CC2c2ccccc2)CC1	14
COc1cc(C2c3cc4c(cc3C(OC3OC5COC(C)OC5C(O)C3O)C3COC(=O)C23)OCO4)cc(OC)c1O (configuration not stated) + NC1CC1c1ccc(-c2cccc(O)c2)cc1	43.7

Kindly give each listed record's viability, T/C.
1. O=C(C=Cc1cccc(S(=O)(=O)Nc2ccccc2)c1)NO + NC1CC1c1ccc(-c2cccc(O)c2)cc1
2. CCN(c1cc(-c2ccc(CN3CCOCC3)cc2)cc(C(=O)NCc2c(C)cc(C)[nH]c2=O)c1C)C1CCOCC1 + NC1CC1c1ccc(-c2cccc(O)c2)cc1

output:
[44, 82]

###

- Tested on: MDA-MB-231 complex spheroid viability
- procedure.details: Anticancer human tumor MDA-MB-231/ATCC cell line growth inhibition;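 further: drug exposure lasted 7 days starting on day 3 of spheroid growth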
- stated.conditions: second compound 0.316 µM; first compound 1 µM; hits give low values
assay.metric: viability, T/C (%)
Numbers only, in %.

A selection of reference data follows.
> print(dat)
                                   compound  units.text  value.measured
1  COc1ccc([C@@H](O)c2cc(-c3ncnc4cc(N5CCOCC5)ccc34)c(F)cc2Cl)nn1 + NC1CCC(NC2CC2c2ccccc2)CC1           %            41.2
2  CC(C)c1c(-c2ccccc2)nc2c(C#N)c[nH]n2c1=O + NC1CC1c1ccc(-c2cccc(O)c2)cc1           %            63.1

Kindly give each listed record's viability, T/C.
1. O=C(c1cc(Cc2n[nH]c(=O)c3ccccc23)ccc1F)N1CCN(C(=O)C2CC2)CC1 + NC1CCC(NC2CC2c2ccccc2)CC1
2. CC1COCCN1c1cc(-c2ccnn2C)c2ccnc(-c3ccn[nH]3)c2n1 (centres undefined) + NC1CCC(NC2CC2c2ccccc2)CC1

output:
82.1
28.9

###

Provide the recorded viability, T/C for the entries that follow.
- Tested on: MDA-MB-231 complex spheroid viability
- procedure.details: Anticancer human tumor MDA-MB-231/ATCC cell line growth inhibition;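 further: drug exposure lasted 7 days starting on day 3 of spheroid growth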
- stated.conditions: second compound 0.1 µM; first compound 0.00316 µM; hits give low values
One number for each entry, in %.

> print(dat)
                                   molecule  value.measured
1  CC[C@@]1(O)C(=O)OCc2c1cc1n(c2=O)Cc2cc3c(CN(C)C)c(O)ccc3nc2-1 + NC1CC1c1ccc(-c2cccc(O)c2)cc1            33.1
2  CC[C@@]1(O)C(=O)OCc2c1cc1n(c2=O)Cc2cc3c(CN(C)C)c(O)ccc3nc2-1 + NC1CCC(NC2CC2c2ccccc2)CC1            40.3

Kindly give each listed record's viability, T/C.
1. COc1cc(Nc2ncc3c(n2)-c2ccc(Cl)cc2C(c2c(F)cccc2OC)=NC3)ccc1C(=O)O + NC1CC1c1ccc(-c2cccc(O)c2)cc1
2. Nc1ncn(C2CC(O)C(CO)O2)c(=O)n1 (configuration not stated) + NC1CCC(NC2CC2c2ccccc2)CC1
3. CC(C)CC(NC(=O)C(Cc1ccccc1)NC(=O)c1cnccn1)B(O)O (configuration not stated) + NC1CCC(NC2CC2c2ccccc2)CC1
4. O=C(C=Cn1cnc(-c2cc(C(F)(F)F)cc(C(F)(F)F)c2)n1)NNc1cnccn1 + NC1CC1c1ccc(-c2cccc(O)c2)cc1
5. CC1COCCN1c1cc(-c2ccnn2C)c2ccnc(-c3ccn[nH]3)c2n1 (configuration not stated) + NC1CC1c1ccc(-c2cccc(O)c2)cc1

output:
1: 43.8; 2: 94; 3: 1.89; 4: 27.7; 5: 38.1

Kindly give each listed record's viability, T/C.
1. COc1cc(Nc2ncc3c(n2)-c2ccc(Cl)cc2C(c2c(F)cccc2OC)=NC3)ccc1C(=O)O + NC1CCC(NC2CC2c2ccccc2)CC1
2. Cn1ncnc1C1c2n[nH]c(=O)c3cc(F)cc(c23)NC1c1ccc(F)cc1 (configuration not stated) + NC1CCC(NC2CC2c2ccccc2)CC1
3. CC(C)CC(NC(=O)C(Cc1ccccc1)NC(=O)c1cnccn1)B(O)O (configuration not stated) + NC1CC1c1ccc(-c2cccc(O)c2)cc1
4. CC1COCCN1c1cc(-c2ccnn2C)c2ccnc(-c3ccn[nH]3)c2n1 (configuration not stated) + NC1CCC(NC2CC2c2ccccc2)CC1

output:
[85, 92.5, 0.68, 102]

Per the records, this molecule ( Cn1ncnc1C1c2n[nH]c(=O)c3cc(F)cc(c23)NC1c1ccc(F)cc1 (configuration not stated) + NC1CC1c1ccc(-c2cccc(O)c2)cc1 ) has viability, T/C equal to 74.2
